The measurements presented in this section are drawn from paper PMC3375280.

Biological target: AT1 S109A mutant receptor (Rattus norvegicus, UniProt P25095, S109A)
Sequence (P25095 1-359 S109A): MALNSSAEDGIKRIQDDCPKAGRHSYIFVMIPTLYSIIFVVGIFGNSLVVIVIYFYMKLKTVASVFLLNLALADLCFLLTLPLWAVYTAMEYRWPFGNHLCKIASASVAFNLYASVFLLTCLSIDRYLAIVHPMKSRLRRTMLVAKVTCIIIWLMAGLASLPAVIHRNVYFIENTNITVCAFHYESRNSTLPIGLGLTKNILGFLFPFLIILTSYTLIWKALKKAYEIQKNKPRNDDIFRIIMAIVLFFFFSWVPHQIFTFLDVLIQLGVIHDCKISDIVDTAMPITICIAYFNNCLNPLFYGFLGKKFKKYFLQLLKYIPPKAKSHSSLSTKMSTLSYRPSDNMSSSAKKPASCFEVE
Experiment: competition binding, S109A mutant
Conditions: S109A; COS1 membranes; read-out: Binding affinity (Kd)
QUANTITY MEASURED: Kd (nM)
API: value field is a number in nM; no unit string.

Examples with their reported Kd follow.
# MOLECULE, SYSTEM, QUANTITY MEASURED, DATA VALUE
measured = [
    ("CCCc1nc(C(C)(C)O)c(C(N)=O)n1Cc1ccc(-c2ccccc2-c2nnn[nH]2)cc1", "AT1 S109A mutant receptor (Rattus norvegicus, UniProt P25095, S109A)", "Kd", 0.9),
    ("CCCc1nc(C(C)(C)O)c(C(N)=O)n1Cc1ccc(-c2cc(Cc3ccc(O)cc3)ccc2-c2nnn[nH]2)cc1", "AT1 S109A mutant receptor (Rattus norvegicus, UniProt P25095, S109A)", "Kd", 34),
]

// next item, Kd requested
I'd like to know its Kd. The molecule in question is CCCc1nc(C(C)(C)O)c(C(=O)O)n1Cc1ccc(-c2ccccc2-c2nnn[nH]2)cc1 [Olmesartan, olmesartan, reference compound]
2.5

---

biological target: AT1 C76A/A106C/C289A mutant receptor (Rattus norvegicus, UniProt P25095, A106C/C289A/C76A); construct: expressed in transfected cells; host or cells: COS1; assay: competition binding, C76A/A106C/C289A mutant; details: C76A/A106C/C289A; COS1 membranes; read-out: Binding affinity (Kd)
QUANTITY MEASURED: Kd (nM)
Your answer should be a plain number; it is taken to be in nM.

Take a look at these entries with their results.
# COMPOUND, DATA VALUE
rows = [
    ("CCCc1nc(C(C)(C)O)c(C(N)=O)n1Cc1ccc(-c2cc(Cc3ccc(O)cc3)ccc2-c2nnn[nH]2)cc1 [R794847]", 193),
    ("CCCc1nc(C(C)(C)O)c(C(=O)O)n1Cc1ccc(-c2ccccc2-c2nnn[nH]2)cc1 [Olmesartan, olmesartan, reference compound]", 8.9),
]

// next entry
Bench note: what Kd did CCCc1nc(C(C)(C)O)c(C(N)=O)n1Cc1ccc(-c2ccccc2-c2nnn[nH]2)cc1 [R239470] show?
4.1

---

Collected pKd values appear next to each entry.
Molecular target: AT1 A106G mutant receptor (Rattus norvegicus, UniProt P25095, A106G)
Sequence (P25095 1-359 A106G): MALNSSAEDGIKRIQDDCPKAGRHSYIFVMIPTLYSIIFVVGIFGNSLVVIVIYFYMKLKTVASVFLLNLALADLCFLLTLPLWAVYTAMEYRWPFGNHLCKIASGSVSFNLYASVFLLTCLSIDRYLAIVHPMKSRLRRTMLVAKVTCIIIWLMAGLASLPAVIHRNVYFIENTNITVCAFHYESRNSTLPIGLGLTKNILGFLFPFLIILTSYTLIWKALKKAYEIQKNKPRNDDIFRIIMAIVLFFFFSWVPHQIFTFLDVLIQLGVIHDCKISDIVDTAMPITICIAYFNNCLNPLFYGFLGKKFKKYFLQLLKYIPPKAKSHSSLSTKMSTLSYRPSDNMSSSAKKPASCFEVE
Test: competition binding, A106G mutant
Conditions: A106G; COS1 membranes; read-out: Binding affinity (Kd)
pKd is a log-scale quantity: -log10 of the concentration expressed in molar.

Worked set:
# MOLECULE, pKd
measured = [
    ("CCCc1nc(C(C)(C)O)c(C(N)=O)n1Cc1ccc(-c2cc(Cc3ccc(O)cc3)ccc2-c2nnn[nH]2)cc1", 6.10),
    ("CCCc1nc(C(C)(C)O)c(C(N)=O)n1Cc1ccc(-c2ccccc2-c2nnn[nH]2)cc1", 8.32),
]

Proceed to the following item.
Data request, read-out pKd, for CCCc1nc(C(C)(C)O)c(C(=O)O)n1Cc1ccc(-c2ccccc2-c2nnn[nH]2)cc1 [Olmesartan, olmesartan, reference compound]
8.21

---

Target: AT1 C76A/Y113C/C289A mutant receptor (Rattus norvegicus, UniProt P25095, C289A/C76A/Y113C)
Sequence (P25095 1-359 C76A/Y113C/C289A): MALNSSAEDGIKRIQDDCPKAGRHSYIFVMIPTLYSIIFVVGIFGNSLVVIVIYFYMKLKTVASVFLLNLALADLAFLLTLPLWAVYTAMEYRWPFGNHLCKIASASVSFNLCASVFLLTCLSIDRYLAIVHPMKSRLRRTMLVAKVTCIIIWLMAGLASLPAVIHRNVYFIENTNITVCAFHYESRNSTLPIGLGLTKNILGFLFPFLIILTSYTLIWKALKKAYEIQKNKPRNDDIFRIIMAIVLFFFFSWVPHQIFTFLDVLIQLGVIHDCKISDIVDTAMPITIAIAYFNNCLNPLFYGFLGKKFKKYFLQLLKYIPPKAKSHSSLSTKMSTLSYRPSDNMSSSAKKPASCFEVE
Experiment: competition binding, C76A/Y113C/C289A mutant
Details: C76A/Y113C/C289A; COS1 membranes; read-out: Binding affinity (Kd)
QUANTITY MEASURED: Kd (nM)
The reply should be a number in nM, with the unit left off.

The following compounds have reported results that may help.
# COMPOUND, SYSTEM, QUANTITY MEASURED, DATA VALUE
rows = [
    ("CCCc1nc(C(C)(C)O)c(C(N)=O)n1Cc1ccc(-c2cc(Cc3ccc(O)cc3)ccc2-c2nnn[nH]2)cc1", "AT1 C76A/Y113C/C289A mutant receptor (Rattus norvegicus, UniProt P25095, C289A/C76A/Y113C)", "Kd", 6420),
    ("CCCc1nc(C(C)(C)O)c(C(=O)O)n1Cc1ccc(-c2ccccc2-c2nnn[nH]2)cc1 [Olmesartan, olmesartan, reference compound]", "AT1 C76A/Y113C/C289A mutant receptor (Rattus norvegicus, UniProt P25095, C289A/C76A/Y113C)", "Kd", 570),
]

Now let's try a different one.
State the recorded Kd for this entry: CCCc1nc(C(C)(C)O)c(C(N)=O)n1Cc1ccc(-c2ccccc2-c2nnn[nH]2)cc1
272
